# Procedure Text: self-splicing fitness, log relative to wild type (ln ratio); higher = more splicing; Tetrahymena group I intron in knt gene, E. coli kanamycin selection, DiMSum; sequences stand for … in CUCUCU…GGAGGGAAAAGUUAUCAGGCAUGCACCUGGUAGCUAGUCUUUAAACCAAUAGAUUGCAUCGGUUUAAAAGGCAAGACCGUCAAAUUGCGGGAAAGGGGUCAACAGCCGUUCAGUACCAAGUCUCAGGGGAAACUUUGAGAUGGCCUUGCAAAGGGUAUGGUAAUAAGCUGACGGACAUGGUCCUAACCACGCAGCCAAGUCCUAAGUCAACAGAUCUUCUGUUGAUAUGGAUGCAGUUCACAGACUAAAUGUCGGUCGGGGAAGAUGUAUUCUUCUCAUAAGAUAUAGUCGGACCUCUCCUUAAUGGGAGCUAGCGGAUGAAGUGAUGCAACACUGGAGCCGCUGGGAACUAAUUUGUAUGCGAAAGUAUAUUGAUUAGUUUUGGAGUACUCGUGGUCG;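 also: selection with 25 µg/mL kanamycin versus none on LB agar overnight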
# Settings: 30 °C
Result Type: self-splicing fitness (ln)

**Query** Name the recorded self-splicing fitness (ln) for "CCGAAGCAAUAUUACGGUGG" .
**Result** -4.27

**Query** Entry "ACACAGCAAUAUUACGAUGG" : reported self-splicing fitness (ln) = ?
**Result** -1.53

**Query** Returns the measured self-splicing fitness (ln) for the input sequence. Input: "AUCAAGCAAUAUUACGCAAC"
**Result** -2.61

**Query** self-splicing fitness (ln) for "AAGCAGCAAUAUUACGUCUU" ?
**Result** -1.66

**Query** Data request, read-out self-splicing fitness (ln), for "CUGCAGCAAUAUUACGGACG"
**Result** -0.355

**Query** # input sequence: "GUCAAGCAAUAUUACGUCCC" ; wanted: its self-splicing fitness (ln)
**Result** -1.22

**Query** # get_value(readout='self-splicing fitness (ln)', item= "CUGCAGCAAUAUUACGAUAG" )
**Result** -1.16

**Query** Request the reported self-splicing fitness (ln) associated with "GGGGAGCAAUAUUACGACAA"
**Result** -1.55

###

# Procedure Text: self-splicing fitness, log relative to wild type (ln ratio); higher = more splicing; Tetrahymena group I intron in knt gene, E. coli kanamycin selection, DiMSum; sequences stand for … in CUCUCU…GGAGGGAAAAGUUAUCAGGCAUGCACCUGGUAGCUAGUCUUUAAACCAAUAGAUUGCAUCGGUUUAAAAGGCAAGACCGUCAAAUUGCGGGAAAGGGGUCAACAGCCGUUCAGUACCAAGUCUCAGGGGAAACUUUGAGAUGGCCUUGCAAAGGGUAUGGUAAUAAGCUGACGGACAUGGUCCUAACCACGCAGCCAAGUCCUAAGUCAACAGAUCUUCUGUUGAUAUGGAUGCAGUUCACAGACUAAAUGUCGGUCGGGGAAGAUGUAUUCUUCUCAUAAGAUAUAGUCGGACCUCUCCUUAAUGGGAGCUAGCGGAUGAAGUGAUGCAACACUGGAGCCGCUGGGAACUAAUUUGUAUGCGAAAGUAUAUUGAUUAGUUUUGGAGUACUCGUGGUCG
# Settings: 30 °C
Result Type: self-splicing fitness (ln)
Provide a numeric answer; units are not to be included.

**Query** Fill in: self-splicing fitness (ln) of "CCAAAGCAAUAUUACGAUUG" is ___
**Result** -1.36

**Query** Which value of self-splicing fitness (ln) has been reported for "GGAAAGCAAUAUUACGCAGU" in the records?
**Result** -2.78

**Query** Requested read-out: self-splicing fitness (ln). Entry: "GUACAGCAAUAUUACGGUCU"
**Result** -0.535

**Query** Record request: self-splicing fitness (ln) value, item "CGGAAGCAAUAUUACGAUUG"
**Result** -0.86

**Query** Entry under review: "AAUGAGCAAUAUUACGGUUU" . Reported self-splicing fitness (ln)?
**Result** -2.13

**Query** What self-splicing fitness (ln) value was documented for this sequence, "CAUAAGCAAUAUUACGUUUC" ?
**Result** -3.35

**Query** Need self-splicing fitness (ln) of "CGCAAGCAAUAUUACGCGAC" , thanks.
**Result** -3.77

**Query** Data request, read-out self-splicing fitness (ln), for "CUUAAGCAAUAUUACGGCCA"
**Result** -2.95

**Query** Which measured self-splicing fitness (ln) value corresponds to "GACAAGCAAUAUUACGACGC" ?
**Result** 0.305

**Query** Param item = "CCUGAGCAAUAUUACGUACG" ; retrieve measured self-splicing fitness (ln).
**Result** -2.08

**Query** Fill blank: measured self-splicing fitness (ln) of the sequence "GCCGAGCAAUAUUACGCCAU" is ____.
**Result** -2.88

**Query** Find the recorded self-splicing fitness (ln) belonging to "UCCGAGCAAUAUUACGGUGA" and report it.
**Result** -0.746

**Query** Returns the measured self-splicing fitness (ln) for the input sequence. Input: "AUUAAGCAAUAUUACGCCGA"
**Result** -1.23

**Query** Look up self-splicing fitness (ln): "GCGGAGCAAUAUUACGUUUC"
**Result** -2.57

**Query** Consider the sequence "GGGAAGCAAUAUUACGUGUU" and give its measured self-splicing fitness (ln).
**Result** -3.17

**Query** Which self-splicing fitness (ln) value is on record for "GUAAAGCAAUAUUACGCACU" ?
**Result** 0.0854

**Query** Given "UAAAAGCAAUAUUACGAUGC" , state its recorded self-splicing fitness (ln).
**Result** -3.82

**Query** Need self-splicing fitness (ln) of "AAGCAGCAAUAUUACGGAGU" , thanks.
**Result** -3.69

**Query** Dear colleague, I am looking for the recorded self-splicing fitness (ln) of the following sequence: "UACUAGCAAUAUUACGCUCU"
**Result** -0.792

**Query** May I ask what self-splicing fitness (ln) has been recorded for "CGUGAGCAAUAUUACGGGUU" ?
**Result** -3.99

**Query** Quick one: self-splicing fitness (ln) for "AUAUAGCAAUAUUACGAGCU" ?
**Result** -2.13

**Query** Can you look up the measured self-splicing fitness (ln) of "GGCCAGCAAUAUUACGAAUC" for me?
**Result** -0.266

**Query** Data request, read-out self-splicing fitness (ln), for "GGAAAGCAAUAUUACGCGGA"
**Result** -1.96

**Query** Return reported self-splicing fitness (ln); argument: "CAGAAGCAAUAUUACGUCUG"
**Result** -3.35

**Query** // query self-splicing fitness (ln) value for entry "GAUAAGCAAUAUUACGUAUU"
**Result** -4.03

**Query** Field request: self-splicing fitness (ln) | item: "CCAGAGCAAUAUUACGCUAU"
**Result** -3.78

**Query** self-splicing fitness (ln) for "ACCGAGCAAUAUUACGAAGU" ?
**Result** -1.93

**Query** Record request: self-splicing fitness (ln) value, item "CGCGAGCAAUAUUACGCAUU"
**Result** -2.71

**Query** Would you kindly share the measured self-splicing fitness (ln) for "GCCCAGCAAUAUUACGUGUG" ?
**Result** -2.21

**Query** Consider the sequence "CAACAGCAAUAUUACGGAGG" and give its measured self-splicing fitness (ln).
**Result** -1.33

**Query** # get_value(readout='self-splicing fitness (ln)', item= "UUCAAGCAAUAUUACGGGUG" )
**Result** -0.476

**Query** # query: self-splicing fitness (ln) of entry "UAGUAGCAAUAUUACGUCCG"
**Result** -0.377

**Query** Please give the measured self-splicing fitness (ln) for this sequence: "UCGCAGCAAUAUUACGUGUC"
**Result** -3.83

**Query** Which value of self-splicing fitness (ln) has been reported for "GGACAGCAAUAUUACGUGUU" in the records?
**Result** -3.42
